# ASSAY_TARGET: T1, human CD19 (human, UniProt P15391 20-291, biotinylated in the Biacore assay of Table 11)
# T1 construct: also called isolated CD19; Human CD19 Protein
# T1 sequence (looked up): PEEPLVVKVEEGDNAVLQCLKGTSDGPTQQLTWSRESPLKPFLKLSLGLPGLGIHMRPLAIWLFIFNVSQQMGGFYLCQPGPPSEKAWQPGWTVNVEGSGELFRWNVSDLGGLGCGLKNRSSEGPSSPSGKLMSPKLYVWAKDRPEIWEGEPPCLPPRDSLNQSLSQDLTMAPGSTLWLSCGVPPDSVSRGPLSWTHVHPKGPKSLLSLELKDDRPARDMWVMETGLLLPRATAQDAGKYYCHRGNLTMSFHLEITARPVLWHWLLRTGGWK
# MEASUREMENT_DESCRIPTION: Octet HTX (ForteBio), IgG on AHC sensor, 1:1 fit

[
  {
    "BINDER": "CNG-CD19-110 (antibody, V domains shown, tested as IgG produced in yeast) VH: QVQLVQSGAEVKKPGASVKVSCKASGYTFTDYIMHWVRQAPGQGLEWMGYINPYNDGSKYTEKFQGRVTMTSDTSISTAYMELSRLRSDDTAVYYCARGTYYYGPQLFDYWGQGTTVTVSS VL: DIVMTQTPLSLSVTPGQPASISCKSSQSLETSTGTTYLNWYLQKPGQSPQLLIYRSSKRFSGVPDRFSGSGSGTDFTLKISRVEAEDVGVYYCLQLLEDPPTFGQGTKLEIK",
    "koff [s⁻¹]": 0.000121
  },
  {
    "BINDER": "CNG-CD19-706 (antibody, V domains shown, tested as IgG produced in yeast) VH: QVQLQESGPGLVKPSQTLSLTCTVSGGSIASGMGVSWIRQHPGKGLEWIGHIWWDDDKRYNPALKSRVTISVDTSKNQFSLKLSSVTAADTAVYYCARMELWSYYFDPWGQGTLVTVSS VL: EIVLTQSPATLSLSPGERATLSCSASSSVGYMHWYQQKPGQAPRLLIYDTSKLASGIPARFSGSGSGTDFTLTISSLEPEDFAVYYCFQGSVYPFTFGQGTKLEIK",
    "koff [s⁻¹]": "4e-05"
  },
  {
    "BINDER": "CNG-CD19-709 (antibody, V domains shown, tested as IgG produced in yeast) VH: QVQLQESGPGLVKPSQTLSLTCTVSGGSISTSTMGVGWIRQHPGKGLEWIGFIWWDDDKRYNPNLKSRVTMSVDTSKNQFSLKLSSVTAADTAVYYCARMELWSYYFDPWGQGTLVTVSS VL: EIVLTQSPATLSLSPGERATLSCSASSSVGYMHWYQQKPGQAPRLLIYDTSKLAFGIPARFSGSGSGTDFTLTISSLEPEDFAVYYCFQGSVYPFTFGQGTKLEIK",
    "koff [s⁻¹]": "4.6e-05"
  }
]
